This collection of values is drawn from paper PMC4812144.

In this section, each of the molecules is paired with its reported n, Hill coefficient.
- TESTED_TARGET: Na+/K+-ATPase (NKA) (Sus scrofa)
- Construct: The NKA was prepared from porcine kidney outer medulla; from tissue; host or cells: porcine kidney outer medulla
- EXPERIMENTAL_DETAILS: Ouabain-sensitive ATPase activity of NKA (Baginsky assay)
- Assay type: biochemical, porcine
- RUN_CONDITIONS: fit of NKA inhibition curve to logistic function
Would you mind answering with just the numeric figure?

A selection of reference data follows.
                                   molecule                     tested_target  value_measured
0  COc1cc(C2Oc3cc(-c4oc5cc(O)cc(O)c5c(=O)c4O)ccc3OC2CO)ccc1O (stereo not shown)  Na+/K+-ATPase (NKA) (Sus scrofa)             0.5
1  COc1cc(C2C3C=C(c4oc5cc(O)cc(O)c5c(=O)c4O)C4C2COC4(O)C3=O)ccc1O (stereo not shown) [DHSD, dehydrosilydianin]  Na+/K+-ATPase (NKA) (Sus scrofa)             0.6
2  COc1cc(C2Oc3c(O)cc(-c4oc5cc(O)cc(O)c5c(=O)c4O)cc3C2CO)ccc1O (stereo not shown) [DHSCH, dehydrosilychristin]  Na+/K+-ATPase (NKA) (Sus scrofa)             0.8

Pending molecule:
-- ask Tell me the measured n, Hill coefficient of COc1cc(C2Oc3c(O)cc([C@H]4Oc5cc(O)cc(O)c5C(=O)[C@@H]4O)cc3C2CO)ccc1O (stereo partly shown) , please.
-- reply 0.6
